Test system: KM12 colon
Assay: NCI-60 one-dose screen, 48 h (100 = growth as untreated, 0 = no growth, -100 = all killed)
Conditions: 10 µM unless noted
Compounds without any hit were thinned out: in the full panel of roughly 83,000, 20% have a hit. Calls of active or inactive are those of the source. The calls were made as follows: active = growth percent below 10; inactive = the rest.
OBSERVATION_TYPE: growth

Would you please look over these solved cases?
{"MOLECULE": "NS(=O)(=O)c1ccc(-c2cc(-c3nnc(SCC(=O)Nc4ccc(C(=O)/C=C/c5ccc(Cl)cc5)cc4)n3-c3ccccc3)c3ccccc3n2)cc1", "growth": "92.1% (inactive)"}
{"MOLECULE": "Cc1ccc(C)c(/C=C2\\CN(C(=O)OC(C)(C)C)C/C(=C\\c3cc(C)ccc3C)C2=O)c1", "growth": "16.7% (inactive)"}

Batch of 3 molecules: report growth for each.
1. O=C(Nc1ncc(Cc2ccccc2)s1)c1ccc2c(c1)OCCCO2
2. S=c1nc2oc(-c3ccccc3)c(-c3ccccc3)c2c(/N=C\c2ccco2)[nH]1
3. CCN1C(=O)N(CC)C2C1NN=c1s/c(=C\c3ccc[nH]3)c(=O)n12 (stereo not given)

Found:
16.4% (inactive)
94.1% (inactive)
8.23% (active)

Batch of 4 molecules: report growth for each.
1. CS(=O)(=O)c1ccc(NC(=O)c2ccccc2)nc1
2. CCOC(=O)c1c(C)nc2ccccc2c1/C=C/c1cccs1
3. O=S(=O)(NCCNc1nccc(-c2c(-c3cccc(O)c3)nc3occn23)n1)c1ccc(Br)cc1
4. COc1ccc(CNc2c3ccccc3nc3ccccc23)c(OC)c1

Found:
1. 107% (inactive)
2. 77.8% (inactive)
3. 27% (inactive)
4. 54.3% (inactive)

Batch of 2 molecules: report growth for each.
1. Nc1nc(NC(=O)Nc2ccc(C(=O)O)cc2)nn1-c1ccc(S(N)(=O)=O)cc1
2. NC(=O)c1cccc([C@@H]2O[C@H](CO)[C@@H](O)[C@H]2O)c1

Found:
1. 89.6% (inactive)
2. 34.7% (inactive)

Batch of 4 molecules: report growth for each.
1. COc1cc(Cl)c(C)cc1NC(=O)c1cc2ccccc2cc1O
2. C=C(c1ccc(OC)c(/C=C/C(=O)c2ccc3c(c2)OCO3)c1)c1cc(OC)c(OC)c(OC)c1
3. O=C(N/N=C\c1cccc([N+](=O)[O-])c1)N/N=C/c1cccc([N+](=O)[O-])c1
4. Fc1cccc(-c2ccc3c(c2)C2(CCNCC2)CN3)c1

Found:
["9.32% (active)", "4.46% (active)", "107% (inactive)", "102% (inactive)"]

Batch of 3 molecules: report growth for each.
1. Nc1nc(N)c2c(n1)NC(c1ccc(Cl)cc1)C1CCc3ccccc3C1=N2 (stereo not given)
2. C#CCn1cnc2cnc(Nc3cccc(NC(=O)C=C)c3)nc21
3. CC(C)(C)n1cc(-c2ccnc(NCCCNS(=O)(=O)c3cccc4ccccc34)c2)c(-c2cccc(F)c2)n1

Found:
1: 55.4% (inactive); 2: 91.9% [6.25 µM] (inactive); 3: 76.6% (inactive)

Batch of 2 molecules: report growth for each.
1. CCCn1nc(C(=O)N(C)Cc2ccccc2)c2c1CCC(N1CCc3ccccc31)C2 (stereo not given)
2. CCN(CC)CCCN1C(=O)c2c(c(C)c3c(oc4ccc(O)cc43)c2C)C1=O

Found:
["106% (inactive)", "70.7% (inactive)"]
